Target: Epidermal growth factor receptor (Homo sapiens) (UniProt P00533)
Sequence (P00533 whole entry, looked up): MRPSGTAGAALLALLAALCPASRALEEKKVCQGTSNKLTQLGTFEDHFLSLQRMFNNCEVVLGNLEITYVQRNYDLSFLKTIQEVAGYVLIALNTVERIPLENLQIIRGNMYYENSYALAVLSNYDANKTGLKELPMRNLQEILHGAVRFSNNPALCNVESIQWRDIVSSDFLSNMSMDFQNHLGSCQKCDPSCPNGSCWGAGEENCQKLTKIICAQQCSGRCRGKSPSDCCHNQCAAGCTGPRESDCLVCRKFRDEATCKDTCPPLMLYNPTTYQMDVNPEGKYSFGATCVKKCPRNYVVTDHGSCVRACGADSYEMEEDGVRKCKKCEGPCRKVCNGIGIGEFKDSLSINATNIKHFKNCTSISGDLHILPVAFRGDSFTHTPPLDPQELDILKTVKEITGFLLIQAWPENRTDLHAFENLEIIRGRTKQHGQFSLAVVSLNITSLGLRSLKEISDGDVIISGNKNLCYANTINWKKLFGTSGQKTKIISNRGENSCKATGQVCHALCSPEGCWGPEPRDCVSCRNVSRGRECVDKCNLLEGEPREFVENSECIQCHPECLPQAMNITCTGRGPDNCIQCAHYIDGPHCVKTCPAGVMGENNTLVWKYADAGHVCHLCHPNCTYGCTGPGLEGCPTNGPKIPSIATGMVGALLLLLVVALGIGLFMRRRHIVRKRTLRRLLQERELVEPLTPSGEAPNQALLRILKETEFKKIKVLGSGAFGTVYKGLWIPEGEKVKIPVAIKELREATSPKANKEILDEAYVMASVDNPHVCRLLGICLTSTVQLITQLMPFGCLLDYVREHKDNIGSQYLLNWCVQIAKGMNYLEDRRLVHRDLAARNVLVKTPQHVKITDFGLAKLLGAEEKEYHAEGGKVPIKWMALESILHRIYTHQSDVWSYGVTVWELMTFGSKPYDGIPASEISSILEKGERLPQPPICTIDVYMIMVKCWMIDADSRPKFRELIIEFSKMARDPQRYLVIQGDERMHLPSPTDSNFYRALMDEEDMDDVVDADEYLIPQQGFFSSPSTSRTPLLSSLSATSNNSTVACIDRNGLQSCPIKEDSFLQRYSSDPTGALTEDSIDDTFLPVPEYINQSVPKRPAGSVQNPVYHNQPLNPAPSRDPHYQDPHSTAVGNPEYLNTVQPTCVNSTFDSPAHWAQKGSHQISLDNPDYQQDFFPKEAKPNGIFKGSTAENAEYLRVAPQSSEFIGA
Experiment: EGFR binders on small-molecule microarrays, primary screen, biochemical, small-molecule microarray, 635 nm fluorescence (AID 1104);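 also: score merges 667 nm emission intensity with spot signal to noise over triplicate slides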
Settings: EGFR binding, higher = more signal
Response field class: enum, chosen by comparing composite z-score against bin 0 (below -0.3), bin 1 (-0.3 to below 0.5), bin 2 (0.5 or more)

Answered cases to consult:
COCCOC(=O)N1C(=O)[C@@]2(c3cc(C#CC4=CCCCC4)ccc31)[C@H](C(=O)NC[C@H](O)c1ccccc1)[C@H]1C(=O)O[C@H](c3ccccc3)[C@H](c3ccccc3)N1[C@@H]2c1ccc(OCCO)cc1: bin 1
C[C@@H]1NC(=O)CC=C[C@@H](C)[C@@H]2C=C[C@H](O)[C@@H](COC(=O)[C@H](C)NC(=O)CC=C[C@@H](C)[C@@H]3C=C[C@H](O)[C@@H](COC1=O)O3)O2: bin 1
CCC(=O)[C@]12O[C@@]3([C@@H]4C(=O)OCC[C@@H]41)N(Cc1ccccc1)C(C)=C(C(=O)OC)[C@@H](c1ccccc1)N3C2=O: bin 1
C[C@]1(C(=O)NCCN2CCOCC2)c2ccccc2C(=O)N(Cc2ccccc2)[C@H]1c1ccc(CO)cc1: bin 0
CO[C@H]1COC(=O)[C@H](Cc2ccccc2)NC(=O)CC=C[C@@H](C)[C@H](OC)COC(=O)CC=C[C@@H]1C: bin 1

Which composite z-score category applies to CN(C)C(=O)[C@@]1(Cc2ccccc2N=[N+]=[N-])N=C(c2ccc(OCCCO)cc2)O[C@H]1c1ccccc1CN=[N+]=[N-] here? bin 1

---

Test: small-molecule binders of probe aLefty1, primary screen, biochemical, small-molecule microarray, 635/667 nm fluorescence (AID 1153);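 also: score merges spot fluorescence with signal-to-noise ratio from the scanned slide images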
Settings: higher = more signal
// composite z-score lookup, one value per entry
Reply briefly: the number, and no unit.

For the compound CC(C)C[C@@H]1NC(=O)[C@H](CC(C)C)NC(=O)[C@@]23C(=O)N[C@@H](Cc4ccccc4)C2[C@H](C)[C@@]2(C)O[C@H]2C3/C=C/CC/C=C/CNC1=O (some centres not stated) , what composite z-score is on record? 0.0275

---

Test system: Wnt5a (protein binding on small-molecule microarray)
Assay: Wnt5a binders on small-molecule microarray, primary screen, biophysical, 635/667 nm fluorescence (AID 1142);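 also: fluorescence read at 667 nm with signal to noise per printed feature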
Conditions: 635 nm fluorescence, higher = more signal
Attribute measured: composite z-score
Just the number, please, no unit after it.

Recorded results for 3 molecules are shown here.
COc1ccc([Si](C)(C)[C@@H]2[C@@H](CCO)O[C@]3(C(=O)N(Cc4ccccc4)c4ccccc43)[C@H]2C)cc1: -0.0721
O=C1C2C=CC(C(O)C(c3ccccc3)c3ccccc3)N(Nc3ccc([N+](=O)[O-])cc3)C2C(=O)N1c1ccccc1 (stereo not drawn): 0.528
C=C(COC)/C(=C/C[C@@H](OC(=O)c1ccncc1)c1ccc(OCCO)cc1)c1cc(C(=O)OC)ccc1OC: 0.147

# input molecule: CN(C)CCCC[C@@H]1NC(=O)[C@@H]2C[C@H](C(=O)NCCCCCNC(=O)CS)[C@H](c3ccc(O)cc3)N2C1=O ; wanted: its composite z-score 0.202

Given O=C(NCc1ccccc1)[C@@]1(Cc2ccccc2)COC(c2ccc(OCCCO)cc2)=N1 , state its recorded composite z-score. 0.369

Entry C[C@H]1COC(=O)[C@H](Cc2ccccc2)NC(=O)[C@@H](C)COC(=O)[C@H](Cc2ccccc2)NC1=O has what composite z-score? 0.226

This collection of values is drawn from PubChem BioAssay.
